The reported measurements were obtained from ChEMBL document CHEMBL3988442.

Recorded Percent Effect by entry
# Test system: Trypanosoma cruzi
# Procedure text: Trypanosoma cruzi phosphomannomutase and mannose-1-phosphate guanylyltransferase assay
# Assay type: functional
# Set-up: scale not given: direction of the effect not stated beside the values
# Condition description: 10 µM
Please state the figure in %; there is no need to write the unit.

Reported Percent Effect, compound `CCN1CCO[C@]2(CCC[C@H]2COCc2csc(C)n2)C1` : ____ -0.292

// same read-out, input: CC1CN(CC2CCCCC2)CCN1c1ccc2nncn2n1 (stereo not drawn) -4.6

// same read-out, input: `Cc1ccc(NC2CCN(C(=O)Cc3csc(C)n3)CC2)nn1` -8.02

// same read-out, input: CC(O)CN(CC(=O)NC(=O)NC1CC1)c1ccccc1 (stereo not drawn) -2.64

// same read-out, input: FC(F)(F)Cn1ccnc1CN1CCOC(Cn2cccn2)C1 (stereo not drawn) -2.36

Next:
Reported Percent Effect, compound `Cn1cc(C(=O)N2CC[C@@H]3[C@@H]2CCN3Cc2cccc(F)c2)cn1` : ____ 0.88

// same read-out, input: CCc1nccn1C1CCCN(C(=O)c2ccc3nncn3c2)C1 (stereo not drawn) 5.06

// same read-out, input: `COc1ccccc1OC1CCN(Cc2cnc(N(C)C)nc2)CC1` -1.84

====

Recorded Percent Effect by entry
# System name: Sialic acid-binding Ig-like lectin 9 (Homo sapiens) (UniProt Q9Y336)
# Sequence (Q9Y336 whole entry): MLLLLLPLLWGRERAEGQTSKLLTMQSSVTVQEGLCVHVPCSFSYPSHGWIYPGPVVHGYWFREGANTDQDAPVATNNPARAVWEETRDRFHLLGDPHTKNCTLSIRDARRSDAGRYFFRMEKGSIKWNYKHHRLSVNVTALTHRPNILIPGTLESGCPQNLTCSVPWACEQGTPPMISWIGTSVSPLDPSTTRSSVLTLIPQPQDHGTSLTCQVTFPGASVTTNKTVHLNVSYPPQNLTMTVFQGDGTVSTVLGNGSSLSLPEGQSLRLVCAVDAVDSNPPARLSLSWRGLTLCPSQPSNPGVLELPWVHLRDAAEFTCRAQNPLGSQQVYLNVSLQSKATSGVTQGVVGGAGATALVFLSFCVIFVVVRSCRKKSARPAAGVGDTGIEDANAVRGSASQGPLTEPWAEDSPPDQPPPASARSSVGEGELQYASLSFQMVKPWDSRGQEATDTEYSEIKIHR
# Procedure text: Hs-Siglec9 ALPHAscreen SOP 20170721
# Set-up: scale not given: direction of the effect not stated beside the values
# Condition description: 10 µM
Please state the figure in %; there is no need to write the unit.

Item `O=C(O)c1cc(NS(=O)(=O)c2cccc(Cl)c2F)ccc1Cl` with Sialic acid-binding Ig-like lectin 9 (Homo sapiens) (UniProt Q9Y336) - Percent Effect? 1.53

// same read-out, input: `COCCN1CCc2cc(C(=O)N(C)C)c(NCC3CC3)nc2CC1` -1.99

// same read-out, input: `COCCN1CCN(C(=O)C2CC=CC2)Cc2cccnc21` 4.75

Now examine the next entry.
Item `Cc1oncc1C(=O)NCc1cc(=O)n2c(n1)CN(C)CCC2` with Sialic acid-binding Ig-like lectin 9 (Homo sapiens) (UniProt Q9Y336) - Percent Effect? -2.27

====

# System name: Proteasome subunit beta (Trypanosoma cruzi) (UniProt O96673)
# Sequence (O96673 as listed by the source): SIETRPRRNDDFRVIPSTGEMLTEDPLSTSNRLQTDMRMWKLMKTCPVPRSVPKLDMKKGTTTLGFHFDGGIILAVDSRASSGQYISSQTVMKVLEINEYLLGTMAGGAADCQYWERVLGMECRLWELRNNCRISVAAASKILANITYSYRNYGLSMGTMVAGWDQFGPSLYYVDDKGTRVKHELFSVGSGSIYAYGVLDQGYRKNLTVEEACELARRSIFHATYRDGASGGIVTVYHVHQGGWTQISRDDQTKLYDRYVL
# Procedure text: Trypanosoma cruzi proteasome chymotrypsin-like activity (TcProtChymo) assay. Note: in the data most compounds retested in dose-response had high values.
# Format: functional
# Parameters: scale not given: direction of the effect not stated beside the values
# Condition description: 9.37 µM
Recorded Percent Effect by entry
Just the number plus its unit, please.

Before answering, review these 5 worked examples.
Reported Percent Effect, compound `O=C1O[C@@H]2CN(Cc3cccc(F)c3)C[C@@H]2N1CCCN1CCOCC1` : ____ 21.3%

// same read-out, input: CN(Cc1nnc(-c2ccco2)o1)C1CCCN(c2cccnn2)C1 (stereo unspecified) 28.4%

// same read-out, input: CCC1CN(C(=O)c2ccc(=O)[nH]c2)CCC(=O)N1Cc1ccccc1 (stereo unspecified) 14%

// same read-out, input: `CC(=O)N1CCOC2(CCN(C(=O)c3cnoc3C)CC2)C1` 0.441%

// same read-out, input: COCCc1noc(CN2CCCCC2Cn2cc(C)cn2)n1 (stereo unspecified) 3.84%

Now examine the next entry.
Reported Percent Effect, compound CCOc1ccccc1C1CCCN1 (stereo unspecified) : ____ 15.4%
